- protocol notes: Determination of compound Cmax and AUC after oral gavage
- Format: in vivo, Sprague-Dawley rats
- run conditions: Sprague-Dawley, rat plasma, actual oral dose 11 mg/kg, blood at 0.5-4 h
quantity measured: AUC

Give the value of AUC reported for the following: CN(CCN1CCOCC1)C(=O)c1cccc(C(=O)Nc2ccc(N3CCCCC3)cc2C(=O)c2cc3ccc(C(F)(F)F)cc3[nH]2)c1 [Example 2, 2,2,2-trifluoroacetate] < 97 ng·h/mL

###

- protocol notes: Determination of compound Cmax and AUC after oral gavage
- Type: in vivo, Sprague-Dawley rats
- run conditions: Sprague-Dawley, rat plasma, actual oral dose 7.5 mg/kg, LLOQ 10 ng/mL
quantity measured: Cmax (ng/mL)
I only need the number, in ng/mL, no unit after it.

Using known records, supply Cmax for `O=C(O)CCSCc1cccc(C(=O)Nc2ccc(N3CCCCC3)cc2C(=O)c2cc3ccc(C(F)(F)F)cc3[nH]2)c1` 299
